- tested system: Neutrophil elastase (Homo sapiens) (UniProt P08246)
- Sequence (whole entry): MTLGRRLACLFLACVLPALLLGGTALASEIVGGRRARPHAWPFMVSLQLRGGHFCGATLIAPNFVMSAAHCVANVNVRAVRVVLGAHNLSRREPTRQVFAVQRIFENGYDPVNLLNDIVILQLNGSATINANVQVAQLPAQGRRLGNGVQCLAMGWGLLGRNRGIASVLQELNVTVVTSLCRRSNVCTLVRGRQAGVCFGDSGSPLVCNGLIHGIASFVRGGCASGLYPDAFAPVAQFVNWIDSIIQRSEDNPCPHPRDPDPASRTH
- assay info: Inhibition of Human Leukocyte Elastase induced lung hemorrhage in hamsters expressed as % inhibition (mean of 4 animals)
- Type: functional
- Design: concentration or dose not given beside the values
- condition context: concentration not given here
metric: inhibition (%)

Here is how some compounds turned out for inhibition.
CCC1(CC)C(=O)N(C(=O)NCc2ccccc2)C1Oc1cccc(CC(=O)O)c1 (stereo not given) ... 67
CCC1(CC)C(=O)N(C(=O)NCc2ccccc2)C1Oc1ccccc1NC(C)=O (stereo not given) ... 24

1. CCC1(CC)C(=O)N(C(=O)NCc2ccccc2)C1Sc1cccnc1 (stereo not given)
2. CCC1(CC)C(=O)N(C(=O)NCc2ccccc2)C1N1C=NC=CN1 (stereo not given)
Q) For this pair, 1 and 2 , which shows a numerically higher inhibition? When you have decided, please share the label of that item.
A) 2
